tested on: Hey (Ovarian Carcinoma); assay: combination Emax (second highest fraction inhibited in the dose matrix, 72 h); higher = more inhibition; extreme values may be limits of the assay
Below: a set of entries, each annotated with reported combination Emax.

Item COc1nnc2ccc(N3CCC(c4ccc(OCCN5CCN(C)C(=O)[C@H]5C)cc4)CC3)nn12 [AZD5153] + CCN(CCO)CCCOc1ccc2c(Nc3cc(CC(=O)Nc4cccc(F)c4)[nH]n3)ncnc2c1 [AZD2811] (first compound max 1 µM, 7x7, partner max 1 µM) has what recorded combination Emax?
0.618

Item COc1cc2ncnc(Nc3ccc(F)c(Cl)c3)c2cc1OCCCN1CCOCC1 [Gefitinib] + CC(C)n1c(=O)n(C)c2cnc3cc(F)c(-c4ccc(OCCCN5CCCCC5)nc4)cc3c21 [AZD1390] (first compound max 10 µM, 7x7, partner max 0.3 µM) has what recorded combination Emax?
0.0522

Item CN(CCO)CC[C@H](CSc1ccccc1)Nc1ccc(S(=O)(=O)NC(=O)c2ccc(N3CCC([C@@H](O)c4ccccc4-c4ccc(Cl)cc4)CC3)cc2)cc1S(=O)(=O)C(F)(F)F [AZD4320] + CCN(CCO)CCCOc1ccc2c(Nc3cc(CC(=O)Nc4cccc(F)c4)[nH]n3)ncnc2c1 [AZD2811] (first compound max 1 µM, 7x7, partner max 1 µM) has what recorded combination Emax?
0.254

Item Cc1c2c(nn1C)CSCc1cc(n(C)n1)CSc1cc(c3ccccc3c1)OCCCc1c(C(=O)O)n(C)c3c-2c(Cl)ccc13 [AZD5991] + C1CN(CCC1(C(=O)N[C@@H](CCO)C2=CC=C(C=C2)Cl)N)C3=NC=NC4=C3C=CN4 [Capivasertib] (first compound max 1 µM, 7x7, partner max 3 µM) has what recorded combination Emax?
0.156

----------
tested on: SW982 (Other Solid Carcinomas); assay: Bliss excess, mean over the matrix (fraction); higher = more synergy
parameter: Bliss excess
# output: bare number, no unit

compound: CC(=O)Nc1cccc(-n2c(=O)n(C3CC3)c(=O)c3c(Nc4ccc(I)cc4F)n(C)c(=O)c(C)c32)c1 [Trametinib] + Cc1nc(-c2cn3c(n2)-c2ccc(-c4cnn(C(C)(C)C(N)=O)c4)cc2OCC3)n(C(C)C)n1 [Taselisib] (first compound max 1 µM, 7x7, partner max 10 µM)
Bliss excess: 0.0666

Shift focus to the following entry.
Item COc1cccc(OCCCN)c1-c1cc(Nc2cnc(C#N)cn2)n[nH]1 [Prexasertib] + C=CCn1c(=O)c2cnc(Nc3ccc(N4CCN(C)CC4)cc3)nc2n1-c1cccc(C(C)(C)O)n1 [AZD1775] (first compound max 1 µM, partner max 1 µM) has what recorded Bliss excess?
-0.0341

----------
system: SK-LU-1 (Lung Adenocarcinoma); experiment: Bliss excess, mean over the matrix (fraction); higher = more synergy
Definition: the class of an entry is the range in low-valued = under -0.06, mid-valued = from -0.06 up to -0.03, high-valued = -0.03 and over that contains its Bliss excess.

compound: Cn1cnc2c(F)c(Nc3ccc(Br)cc3Cl)c(C(=O)NOCCO)cc21 [Selumetinib] + C=CCn1c(=O)c2cnc(Nc3ccc(N4CCN(C)CC4)cc3)nc2n1-c1cccc(C(C)(C)O)n1 [AZD1775] (first compound max 10 µM, partner max 1 µM)
assayedSystem: SK-LU-1 (Lung Adenocarcinoma)
classification: high-valued

Class label required: Cc1c2c(nn1C)CSCc1cc(n(C)n1)CSc1cc(c3ccccc3c1)OCCCc1c(C(=O)O)n(C)c3c-2c(Cl)ccc13 [AZD5991] + CC1(C)CCC(CN2CCN(c3ccc(C(=O)NS(=O)(=O)c4ccc(NCC5CCOCC5)c([N+](=O)[O-])c4)c(Oc4cnc5[nH]ccc5c4)c3)CC2)=C(c2ccc(Cl)cc2)C1 [Venetoclax] (first compound max 1 µM, 7x7, partner max 1 µM)
mid-valued

Class label required: Cc1c2c(nn1C)CSCc1cc(n(C)n1)CSc1cc(c3ccccc3c1)OCCCc1c(C(=O)O)n(C)c3c-2c(Cl)ccc13 [AZD5991] + CC(=O)O[C@H]1C(=O)[C@@]2(C)[C@H]([C@H](OC(=O)c3ccccc3)[C@]3(O)C[C@H](OC(=O)[C@H](O)[C@@H](NC(=O)c4ccccc4)c4ccccc4)C(C)=C1C3(C)C)[C@]1(OC(C)=O)CO[C@@H]1C[C@@H]2O [Paclitaxel] (first compound max 1 µM, 7x7, partner max 3 µM)
high-valued

Class label required: C=CCn1c(=O)c2cnc(Nc3ccc(N4CCN(C)CC4)cc3)nc2n1-c1cccc(C(C)(C)O)n1 [AZD1775] + C[C@@H]1COCCN1C2=NC(=NC(=C2)C3(CC3)[S@](=N)(=O)C)C4=C5C=CNC5=NC=C4 [AZD6738] (first compound max 1 µM, partner max 10 µM)
low-valued
